Hey, just so you know, these numbers are from patent US11673889B2.

Assign clearance to each entry below.
# experiment summary: Pharmacokinetics in mice
# Assay type: in vivo
# measurement parameters: mouse, plasma; male CD-1 mice; 1 mg/kg, iv
Respond with the bare value in mL/min/kg.

input: Complete the entry with clearance for COc1ccc2c(ncc3ncn(Cc4ccc(S(N)(=O)=O)nc4)c32)n1
output: 74

input: Provide one value: measured clearance of COc1ccc2c(ncc3nnn(Cc4ccc(S(N)(=O)=O)c(F)c4)c32)n1
output: 65

input: Tell us which clearance value is on record for COc1ccc2c(ncc3c2n(Cc2c(F)cc(S(N)(=O)=O)cc2F)c(=O)n3C)n1
output: 37

input: # return recorded clearance for input COc1ccc2c(ncc3nc(CN4CCOCC4)n(Cc4ccc(S(N)(=O)=O)c(F)c4)c32)n1
output: 107

input: Hello, please tell me recorded clearance for this one: COc1ccc2c(ncc3ncn(Cc4ccc(S(N)(=O)=O)c(F)c4)c32)n1
output: 62

input: Item COc1ccc2c(ncc3ncn(CC4CN(S(N)(=O)=O)C4)c32)n1 : provide clearance
output: 103

input: Supply clearance value. Item: COc1ccc2c(n1)nc(C)c1nc(C)n(Cc3ccc(S(N)(=O)=O)cn3)c12
output: 26

input: // fetch clearance given entry COc1ccc2c(ncc3ncn(Cc4ccc(S(N)(=O)=O)cn4)c32)n1
output: 70
